test system: pERK in MKN1 cells; assay: Inhibition of KRas phosphorylation of ERK (Cisbio HTRF pERK assay); conditions: Homo sapiens, MKN-1, 3 h, read-out: Inhibition (HTRF IC50) of KRas-mediated Phosphorylation of ERK, MKN1
List of IC50 values.

>  <MOLECULE>
CCc1c(F)ccc2cc(O)cc(-c3ncc4c(N5CCC[C@]6(C5)C[C@@](C)(O)C6)nc(OCC56CCCN5CCC6)nc4c3F)c12

>  <RELATIONAL OPERATOR>
≥

>  <IC50 (nM)>
10000

$$$$
>  <MOLECULE>
CCc1c(F)ccc2cc(O)cc(-c3ncc4c(N5CCOCC(C)(CO)C5)nc(OC[C@@]56CCCN5C[C@H](F)C6)nc4c3F)c12 (some centres unmarked)

>  <RELATIONAL OPERATOR>
=

>  <IC50 (nM)>
68

$$$$
>  <MOLECULE>
CCc1c(F)ccc2cc(O)cc(-c3ncc4c(N5C[C@@H]6C(CO)NC(=O)[C@@H]6C5)nc(OC[C@@]56CCCN5C[C@H](F)C6)nc4c3F)c12 (stereo in doubt)

>  <RELATIONAL OPERATOR>
≥

>  <IC50 (nM)>
10000

$$$$
>  <MOLECULE>
CCc1c(F)ccc2cc(O)cc(-c3ncc4c(N5CCCC6(C5)NC(=O)NC6=O)nc(OCC5(CN(C)C)CC5)nc4c3F)c12 (centres unmarked)

>  <RELATIONAL OPERATOR>
=

>  <IC50 (nM)>
60

$$$$
>  <MOLECULE>
O=C1NCC12CCCN(c1nc(OC[C@@]34CCCN3C[C@H](F)C4)nc3c(F)c(-c4cc(O)cc5ccc(F)c(Br)c45)ncc13)C2 (some centres unmarked)

>  <RELATIONAL OPERATOR>
=

>  <IC50 (nM)>
306

$$$$

* * *

target: KRas WT (Homo sapiens);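 also: binding to KRas read as TR-FRET displacement after a one-hour room-temperature incubation, IC50 derived from percent-of-control values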
Sequence (P01116 1-169 isoform P01116-2): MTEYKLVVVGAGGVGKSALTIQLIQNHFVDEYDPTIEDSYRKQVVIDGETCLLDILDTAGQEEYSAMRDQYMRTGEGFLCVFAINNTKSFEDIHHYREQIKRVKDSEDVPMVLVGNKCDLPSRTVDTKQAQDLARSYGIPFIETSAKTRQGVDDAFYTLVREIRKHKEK
MEASURED ATTRIBUTE: log10 IC50 (log10 of the value in µM)

>  <COMPOUND>
C#Cc1c(F)ccc2cc(O)cc(-c3ncc4c(N5CCCC(O)C5)nc(OCCN(C)C)nc4c3F)c12 (stereo not drawn)

>  <log10 IC50>
-0.97

$$$$
>  <COMPOUND>
Cc1cccc2cccc(-c3ncc4c(N5CCCC6(CC(=O)N6)C5)nc(OCC56CCCN5CCC6)nc4c3F)c12 (stereo not drawn)

>  <log10 IC50>
-0.47

$$$$
>  <COMPOUND>
O=C1CC(CNc2nc(OCC34CCCN3CCC4)nc3c(F)c(-c4cccc5cccc(F)c45)ncc23)C(=O)N1 (stereo not drawn)

>  <log10 IC50>
0.54

$$$$
>  <COMPOUND>
NS(=O)(=O)NC1CCCN(c2nc(OCC34CCCN3CCC4)nc3c(F)c(-c4cccc5cccc(F)c45)ncc23)C1 (stereo not drawn)

>  <log10 IC50>
-0.32

$$$$
>  <COMPOUND>
Fc1c(-c2cccc3cccc(F)c23)ncc2c(NCCc3ccn[nH]3)nc(OCC34CCCN3CCC4)nc12

>  <log10 IC50>
1.53

$$$$
>  <COMPOUND>
Fc1c(-c2cccc3cccc(F)c23)ncc2c(N3CCCC4(CCC4)C3)nc(OCC34CCCN3CCC4)nc12

>  <log10 IC50>
1.28

$$$$
>  <COMPOUND>
NC(=O)C(O)CNc1nc(OCC23CCCN2CCC3)nc2c(F)c(-c3cccc4cccc(Cl)c34)ncc12 (stereo not drawn)

>  <log10 IC50>
0.66

$$$$
>  <COMPOUND>
CCc1c(F)ccc2cccc(-c3ncc4c(N5CCC[C@@](C)(O)C5)nc(OCC56CCCN5CCC6)nc4c3F)c12

>  <log10 IC50>
-1.39

$$$$
>  <COMPOUND>
N#CCc1cccc2cccc(-c3ncc4c(N5CCCC6(CC(=O)N6)C5)nc(OCC56CCCN5CCC6)nc4c3F)c12 (stereo not drawn)

>  <log10 IC50>
0.71

$$$$
>  <COMPOUND>
O=S1(=O)NCC2(CCCN(c3nc(OCC45CCCN4CCC5)nc4c(F)c(-c5cccc6cccc(F)c56)ncc34)C2)N1 (stereo not drawn)

>  <log10 IC50>
-2.15

$$$$
>  <COMPOUND>
Fc1c(-c2cccc3cccc(Cl)c23)ncc2c(NCCCOC(F)F)nc(OCC34CCCN3CCC4)nc12

>  <log10 IC50>
0.79

$$$$

* * *

biological target: KRas G13D (Homo sapiens, UniProt P01116, G13D); construct: Biotinylated KRas (corresponding to amino acids 1-169, produced at Accelegan Inc.); biotin (biotinylated); purchased Accelegan Inc; experiment: KRas binding assay (TR-FRET displacement);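 also: One-hour room temperature incubation before TR-FRET reading, IC50 from a four-parameter curve fit to percent-of-control data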
Sequence (P01116 1-169 isoform P01116-2 G13D): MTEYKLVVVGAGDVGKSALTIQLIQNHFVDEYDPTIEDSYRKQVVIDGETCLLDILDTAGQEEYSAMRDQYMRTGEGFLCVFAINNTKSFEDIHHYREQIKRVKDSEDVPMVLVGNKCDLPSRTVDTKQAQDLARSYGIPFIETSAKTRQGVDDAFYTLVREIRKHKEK
So basically: is IC50 under 10000 nM? Then rule met. Not under? Then rule not met.

>  <COMPOUND>
CCc1c(F)ccc2cc(O)cc(-c3ncc4c(N5CCC[C@@](C)(O)C5)nc(OCC56CCCN5CCC6)nc4c3F)c12 [Example 27]

>  <LABEL VALUE>
rule met

$$$$
>  <COMPOUND>
Fc1c(-c2cccc3cccc(F)c23)ncc2c(N3CCCC4(COC4)C3)nc(OCC34CCCN3CCC4)nc12 [Example 220]

>  <LABEL VALUE>
rule met

$$$$
>  <COMPOUND>
O=CNC1CCCN(c2nc(OCC34CCCN3CCC4)nc3c(F)c(-c4cccc5cccc(F)c45)ncc23)C1 (centres unmarked) [Example 242]

>  <LABEL VALUE>
rule met

$$$$
>  <COMPOUND>
OCc1cc2n(n1)CCCN(c1nc(OCC34CCCN3CCC4)nc3c(F)c(-c4cccc5cccc(F)c45)ncc13)C2 [Example 261]

>  <LABEL VALUE>
rule met

$$$$
>  <COMPOUND>
Fc1c(-c2cccc3cccc(F)c23)ncc2c(N3CC(c4ccncc4)C3)nc(OCC34CCCN3CCC4)nc12 [Example 213]

>  <LABEL VALUE>
rule not met

$$$$
>  <COMPOUND>
O=C1NCC2(CCN(c3nc(OCC45CCCN4CCC5)nc4c(F)c(-c5cccc6cccc(F)c56)ncc34)CC2)N1 [Example 217]

>  <LABEL VALUE>
rule not met

$$$$
>  <COMPOUND>
Cc1cc2[nH]ncc2c(-c2ncc3c(N4CCCC(C)(O)C4)nc(OCC45CCCN4CCC5)nc3c2F)c1C1CC1 (centres unmarked) [Example 144]

>  <LABEL VALUE>
rule met

$$$$
>  <COMPOUND>
Fc1c(-c2cccc3cccc(F)c23)ncc2c(NCc3c[nH]c4ncccc34)nc(OCC34CCCN3CCC4)nc12 [Example 94]

>  <LABEL VALUE>
rule met

$$$$
>  <COMPOUND>
Fc1c(-c2cccc3cccc(F)c23)ncc2c(N3CCCC4(CC(F)C4)C3)nc(OCC34CCCN3CCC4)nc12 (centres unmarked) [Example 234]

>  <LABEL VALUE>
rule met

$$$$
>  <COMPOUND>
Fc1c(-c2cccc3cccc(F)c23)ncc2c(NCc3cnn4c3OCCC4)nc(OCC34CCCN3CCC4)nc12 [Example 222]

>  <LABEL VALUE>
rule not met

$$$$
>  <COMPOUND>
OC1CC2CC1CN(c1nc(OCC34CCCN3CCC4)nc3c(F)c(-c4cccc5cccc(F)c45)ncc13)C2 (centres unmarked) [Example 81]

>  <LABEL VALUE>
rule met

$$$$
>  <COMPOUND>
Fc1c(-c2cccc3cccc(F)c23)ncc2c(NCCc3cnoc3)nc(OCC34CCCN3CCC4)nc12 [Example 219]

>  <LABEL VALUE>
rule not met

$$$$
>  <COMPOUND>
Cn1cc(CNc2nc(OCC34CCCN3CCC4)nc3c(F)c(-c4cccc5cccc(F)c45)ncc23)ccc1=O [Example 88]

>  <LABEL VALUE>
rule met

$$$$
>  <COMPOUND>
O=S1(=O)CC(CNc2nc(OCC34CCCN3CCC4)nc3c(F)c(-c4cccc5cccc(F)c45)ncc23)C1 [Example 127]

>  <LABEL VALUE>
rule met

$$$$
>  <COMPOUND>
CCc1c(F)ccc2cc(O)cc(-c3ncc4c(N5CCC[C@@](C)(O)C5)nc(OC[C@@H]5CCCN5C)nc4c3F)c12 [Example 28]

>  <LABEL VALUE>
rule met

$$$$
>  <COMPOUND>
Fc1c(-c2cccc3cccc(Cl)c23)ncc2c(N3CC(n4ccnc4)C3)nc(OCC34CCCN3CCC4)nc12 [Example 101]

>  <LABEL VALUE>
rule met

$$$$
>  <COMPOUND>
CC1(O)CCCN(c2nc(OCC3(CN4CCCC4)CC3)nc3c(F)c(-c4cccc5cccc(F)c45)ncc23)C1 (centres unmarked) [Example 257]

>  <LABEL VALUE>
rule met

$$$$

* * *

target: KRas G12A (Homo sapiens, UniProt P01116, G12A); test: biochemical;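 also: binding to KRas measured by TR-FRET displacement after one hour at room temperature, IC50 from a four-parameter fit of percent-of-control values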
Sequence (P01116 1-169 isoform P01116-2 G12A): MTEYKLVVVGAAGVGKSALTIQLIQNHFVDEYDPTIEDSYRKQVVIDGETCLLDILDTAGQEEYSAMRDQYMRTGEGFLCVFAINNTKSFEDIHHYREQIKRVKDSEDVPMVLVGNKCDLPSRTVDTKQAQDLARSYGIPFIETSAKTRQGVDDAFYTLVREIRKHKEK
So basically: is IC50 under 2000 nM? Then YES. Not under? Then NO.

>  <COMPOUND>
C[C@@H]1C[C@@H](O)CN(c2nc(OCC34CCCN3CCC4)nc3c(F)c(-c4cccc5cccc(F)c45)ncc23)C1

>  <LABEL VALUE>
NO

$$$$
>  <COMPOUND>
O=C1CC2(CCCN(c3nc(OCC45CCCN4CCC5)nc4c(F)c(-c5cccc6cccc(F)c56)ncc34)C2)CN1 (centres unmarked)

>  <LABEL VALUE>
NO

$$$$
>  <COMPOUND>
NC(=O)C1CCCN(c2nc(OCC34CCCN3CCC4)nc3c(F)c(-c4cccc5cccc(F)c45)ncc23)C1 (centres unmarked)

>  <LABEL VALUE>
NO

$$$$
>  <COMPOUND>
O=S1(=O)CC(CNc2nc(OCC34CCCN3CCC4)nc3c(F)c(-c4cccc5cccc(CO)c45)ncc23)C1

>  <LABEL VALUE>
NO

$$$$
>  <COMPOUND>
Fc1c(-c2cccc3cccc(Cl)c23)ncc2c(N3CCCC3c3cn[nH]c3)nc(OCC34CCCN3CCC4)nc12 (centres unmarked)

>  <LABEL VALUE>
YES

$$$$
>  <COMPOUND>
NS(=O)(=O)CC1CCCN(c2nc(OCC34CCCN3CCC4)nc3c(F)c(-c4cccc5cccc(CO)c45)ncc23)C1 (centres unmarked)

>  <LABEL VALUE>
NO

$$$$
>  <COMPOUND>
CCc1cccc2cccc(-c3ncc4c(N5CCOCC(CO)C5)nc(OCC56CCCN5CCC6)nc4c3F)c12 (centres unmarked)

>  <LABEL VALUE>
YES

$$$$
>  <COMPOUND>
CCc1c(F)ccc2cc(O)cc(-c3ncc4c(N5C[C@@H]6C[C@H](C5)[C@H](O)C6)nc(OCC5(CN6CCCC6)CC5)nc4c3F)c12

>  <LABEL VALUE>
YES

$$$$
>  <COMPOUND>
O=C1CC(CNc2nc(OCC34CCCN3CCC4)nc3c(F)c(-c4cccc5cccc(F)c45)ncc23)CN1 (centres unmarked)

>  <LABEL VALUE>
NO

$$$$
>  <COMPOUND>
NC(=O)CCNc1nc(OCC23CCCN2CCC3)nc2c(F)c(-c3cccc4cccc(F)c34)ncc12

>  <LABEL VALUE>
NO

$$$$
>  <COMPOUND>
CCc1cccc2cccc(-c3ncc4c(N5CCCC(CS(N)(=O)=O)C5)nc(OCC56CCCN5CCC6)nc4c3F)c12 (centres unmarked)

>  <LABEL VALUE>
YES

$$$$
>  <COMPOUND>
O=C1NC(=O)C2CN(c3nc(OCC45CCCN4CCC5)nc4c(F)c(-c5cccc6cccc(F)c56)ncc34)CC12 (centres unmarked)

>  <LABEL VALUE>
YES

$$$$
>  <COMPOUND>
O=S1(=O)NCC2(CCCN(c3nc(OCC45CCCN4CCC5)nc4c(F)c(-c5cccc6cccc(F)c56)ncc34)C2)N1 (centres unmarked)

>  <LABEL VALUE>
YES

$$$$
>  <COMPOUND>
CCc1cccc2cccc(-c3ncc4c(N5CCCC6(C5)NC(=O)NC6=O)nc(OCC56CCCN5CCC6)nc4c3F)c12 (centres unmarked)

>  <LABEL VALUE>
YES

$$$$
>  <COMPOUND>
C#Cc1c(F)ccc2cc(O)cc(-c3ncc4c(N5C[C@@H]6C[C@H](C5)[C@H](O)C6)nc(OC[C@@]56CCCN5C[C@H](F)C6)nc4c3F)c12

>  <LABEL VALUE>
YES

$$$$
>  <COMPOUND>
N#CC1CCCN(c2nc(OCC34CCCN3CCC4)nc3c(F)c(-c4cccc5cccc(F)c45)ncc23)CC1 (centres unmarked)

>  <LABEL VALUE>
NO

$$$$
>  <COMPOUND>
CCc1c(F)ccc2cc(O)cc(-c3ncc4c(N5CCC[C@@](C)(O)C5)nc(OC[C@@H]5CCCN5C)nc4c3F)c12

>  <LABEL VALUE>
YES

$$$$
